Target: RUNX1 (UniProt Q01196)
Sequence (Q01196 whole entry): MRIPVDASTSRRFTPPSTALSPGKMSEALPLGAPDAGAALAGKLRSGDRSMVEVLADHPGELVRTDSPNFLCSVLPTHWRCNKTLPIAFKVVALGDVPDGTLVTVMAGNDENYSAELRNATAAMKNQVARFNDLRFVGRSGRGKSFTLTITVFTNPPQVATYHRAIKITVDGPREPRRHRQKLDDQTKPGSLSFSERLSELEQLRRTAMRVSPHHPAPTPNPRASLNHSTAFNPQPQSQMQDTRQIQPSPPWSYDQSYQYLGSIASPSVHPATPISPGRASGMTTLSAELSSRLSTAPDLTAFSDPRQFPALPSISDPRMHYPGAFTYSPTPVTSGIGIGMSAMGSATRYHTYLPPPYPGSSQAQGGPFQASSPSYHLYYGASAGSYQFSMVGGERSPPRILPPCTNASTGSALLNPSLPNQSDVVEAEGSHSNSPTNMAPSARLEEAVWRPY
Assay: RUNX1 binding intensity (PBM fluorescence) in presence of ETS1, normalised to RUNX1-only experiment (arbitrary fluorescence units); higher = stronger binding
Details: RUNX1 concentration 2 nM; ETS1 concentration 25 nM
experimental-endpoint: RUNX1 binding intensity
Answers are plain numbers.

GCAGAGAGATTGGCCGGATGCGGTGGCTCACGCCTT
1140
CCAACGAGCACTTCCGCTTCCCGCAGCTCCAGCGGC
2650
AGGGGAGGAACCAGGAAGTTGTGGTAAACTGTAGCA
2360
CAAACAGGTTCCGGCCGGACTACAGCGCCCACAATG
1080

Dear colleague, could you send me RUNX1 binding intensity for each of the items below? Thanks.
1. AGGAGAACTTCCGCCCTTACTATATTACCGCCGGTA
2. GGCCGACGGGAAGTGTAGTCCGGCCTGCGGTCCGGG
3. TGAGTCACATCCTGCAGGGCTGCGGTATCCTGGCTT
4. GTTGGGAGGCGCACATCCGGCGGTTACCCGGTGCTT

OUT:
1: 1520; 2: 1050; 3: 3310; 4: 1560

----------
For each of the sequences below, state its TF binding intensity.
Target: RUNX1 (UniProt Q01196)
Assay: TF binding intensity (PBM fluorescence), negative control probe (arbitrary fluorescence units); higher = stronger binding
Give bare numbers.

Below are some sequences; for each one, tell me its TF binding intensity.
1. CTCACACCCAGTCCCAGGAAGCGAGCCCCACGTCGC (protein concentration 2 nM)
2. CCCTGCAGCGCGTCCTTTCCGGCCCGCCCCATGCAC (protein concentration 2 nM)
3. CGAGCTTAGAAGGCGCTTCCGATGGGCGGAGTTTAG (protein concentration 2 nM)
4. CTCAGCGGCCGAACCCGGAAGTTCGGGGCCGAGTTC (protein concentration 2 nM)

OUT:
1: 894; 2: 922; 3: 742; 4: 901

----------
Molecular target: RUNX1 (UniProt Q01196)
Test: RUNX1 binding intensity (PBM fluorescence), RUNX1 alone (arbitrary fluorescence units); higher = stronger binding
Conditions: RUNX1 concentration 2 nM; ETS1 concentration 0 nM
Kindly return Condition met if reported RUNX1 binding intensity is no lower than 800; return Condition not met if it is lower.

Worked examples follow.
CTTTTCCATGCAGGAAGTGGTTTTTAGAGTGTAGAG
Condition met
GCAACAGGAAGGACCAAGTCCCCTCCCGCAATTTTA
Condition met
AGTCAGCAGAGAGGAAGTGGTTAGTCCTGCCTTGAA
Condition not met
GGGAACTCACACCGGAAACCACAGAACCAAGAGTGG
Condition met
GAGCAGGAAGCACCCCCAGCACAGGCCTGCGGTGAG
Condition not met
ACAAAGAAACCTACATCCTAAGCCACAGAATACAGC
Condition met
GATTGTTATGTCCGGAAACCGCTTATCAGAGCCCTG
Condition met
CCAAAATTGCCACGGAAACCACATCTTTCAGGCGAG
Condition met
CTCTGCCCGCTTCCGCTGGCGGTACCTCAGAGCCGC
Condition met
CTAAGCAGAGGCCGGAAGCGGTGGTTTTTAGCGGCT
Condition not met

IN: RUNX1 binding intensity >= 800 for `GGATGAACAGGAAGCTAAAGTAAATACCACAGTGAC` ?
OUT: Condition not met

IN: Textbook exercise: given the entry `TGGAGTGGAGGAAGTGGTGTTACCACAGCTCAGAGG` , state whether its RUNX1 binding intensity is greater than or equal to 800.
OUT: Condition not met

IN: Hi team, for `TTTCGAGAAAACCGGAAGTGCGTGGTCACGCCCCGC` , is the recorded RUNX1 binding intensity at or above 800?
OUT: Condition not met

----------
Target: ETS1 (UniProt P14921)
Sequence: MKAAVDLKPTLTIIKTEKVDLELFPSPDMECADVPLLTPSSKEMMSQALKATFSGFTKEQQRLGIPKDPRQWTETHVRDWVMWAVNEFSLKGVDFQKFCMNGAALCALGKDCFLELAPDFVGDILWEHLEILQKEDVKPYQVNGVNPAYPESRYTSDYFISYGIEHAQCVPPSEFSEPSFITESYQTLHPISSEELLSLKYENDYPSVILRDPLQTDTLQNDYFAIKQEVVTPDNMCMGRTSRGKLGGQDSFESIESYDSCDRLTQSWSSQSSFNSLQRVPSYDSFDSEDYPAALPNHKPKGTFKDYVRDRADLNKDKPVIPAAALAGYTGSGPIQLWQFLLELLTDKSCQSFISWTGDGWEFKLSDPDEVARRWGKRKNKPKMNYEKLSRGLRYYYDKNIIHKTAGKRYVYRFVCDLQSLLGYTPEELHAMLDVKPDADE
Assay: ETS1 binding intensity (PBM fluorescence) in presence of RUNX1, normalised to ETS1-only experiment (arbitrary fluorescence units); higher = stronger binding
Conditions: ETS1 concentration 1 nM; RUNX1 concentration 25 nM
Assign ETS1 binding intensity to each entry below.

CGGCACCCTCCTTCCTCCCTGCCAACCGCCTCCACC
696
AAGTTTTGGGTTTTCCGCCCACAGCCGCCGAAAGTG
684
GTCTTACTTCCTGTCCCCGCCCACCGCGACTGTCTT
3520
ACCATATCCTGAGAATGAACCATGTGGTGGATGCAC
487

IN: Which ETS1 binding intensity reading was recorded for the sequence `ATGTCTTCCTGTACAGGAACTGGGTCCCAGCCGCAG` ?
OUT: 4430

----------
Target: RUNX1 (UniProt Q01196)
Assay: RUNX1 binding intensity (PBM fluorescence), RUNX1 alone (arbitrary fluorescence units); higher = stronger binding
Details: RUNX1 concentration 2 nM; ETS1 concentration 0 nM
Would you mind sorting the entries by RUNX1 binding intensity according to these classes? low class: < 800; middle class: ≥ 800 and < 1000; high class: ≥ 1000

TTTTGCCCAACAGGATGTGGTTTCTAAAGCAGACGG
high class

IN: Consider `GACAGACCTTAGGAAGTCGCGGTTTCATCAGGGCTT` . To which RUNX1 binding intensity class does it belong?
OUT: middle class

IN: Category of `AATGGGCTTGGTTTCCTGTGGGTTTGTAGCTTTGTA` :
OUT: middle class

IN: Which category fits this record: `TGAAGCAGGCGGAAGTGCTGTGGTTTCTGGCGACTG`
OUT: middle class

----------
Target: ETS1 (UniProt P14921)
Sequence: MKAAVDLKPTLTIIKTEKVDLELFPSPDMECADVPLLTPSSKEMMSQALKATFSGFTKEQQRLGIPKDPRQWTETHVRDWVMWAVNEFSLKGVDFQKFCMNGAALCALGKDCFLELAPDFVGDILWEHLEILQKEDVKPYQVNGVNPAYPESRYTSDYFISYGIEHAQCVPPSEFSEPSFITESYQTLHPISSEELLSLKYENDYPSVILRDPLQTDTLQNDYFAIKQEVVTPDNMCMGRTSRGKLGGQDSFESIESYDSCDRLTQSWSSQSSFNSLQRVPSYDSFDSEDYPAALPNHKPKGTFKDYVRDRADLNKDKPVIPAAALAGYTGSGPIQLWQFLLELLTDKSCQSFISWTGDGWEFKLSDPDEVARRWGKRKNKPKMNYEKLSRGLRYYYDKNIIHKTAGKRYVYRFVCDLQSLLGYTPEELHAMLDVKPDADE
Assay: ETS1 binding intensity (PBM fluorescence) in presence of RUNX1, normalised to ETS1-only experiment (arbitrary fluorescence units); higher = stronger binding
Conditions: ETS1 concentration 1 nM; RUNX1 concentration 25 nM
experimental-endpoint: ETS1 binding intensity
Answers are plain numbers.

Guide cases for ETS1 binding intensity, answers given:
GAGCCTGTTGCTTCCGGTTCAGAGCCCACATGCTGG
3370
GCCGCTGGGTAGGCGGAAGTAGCCGCAGGCATGGCA
7400
GCACTCGGATGTTGGCCGTAGTTGTGGTTATAGTTG
1090
CTGCTGACCAAAACAGGATGTGGTCTACACAAAGTG
36600

I have 7 sequences here; please give me ETS1 binding intensity for each one.
1. GGCCCCTGCTTCCGGGTGTGACGCGAACCGCGGGCA
2. ATGTGCGTGTGCACAGGAAAACCACTGCCAGTATTT
3. CGAAAGTGACCGGAAGTAACCGCCGGGCCAAGATGG
4. CCCACTTCCTGTCTGCTTCCCTCCACCGCTCAGACC
5. TCCAAGGCGGAAAAAACCCGCCCTAAACCGCACCCC
6. ACAAGGACTTCCGCCTCCCTGCGGTCCCTCCCCTAC
7. TGCAATTGGCAGACAGGAAACCGCGGCGTTTTCTGG

OUT:
1: 1050; 2: 789; 3: 18200; 4: 2650; 5: 1040; 6: 1380; 7: 13500

----------
Molecular target: ETS1 (UniProt P14921)
Sequence: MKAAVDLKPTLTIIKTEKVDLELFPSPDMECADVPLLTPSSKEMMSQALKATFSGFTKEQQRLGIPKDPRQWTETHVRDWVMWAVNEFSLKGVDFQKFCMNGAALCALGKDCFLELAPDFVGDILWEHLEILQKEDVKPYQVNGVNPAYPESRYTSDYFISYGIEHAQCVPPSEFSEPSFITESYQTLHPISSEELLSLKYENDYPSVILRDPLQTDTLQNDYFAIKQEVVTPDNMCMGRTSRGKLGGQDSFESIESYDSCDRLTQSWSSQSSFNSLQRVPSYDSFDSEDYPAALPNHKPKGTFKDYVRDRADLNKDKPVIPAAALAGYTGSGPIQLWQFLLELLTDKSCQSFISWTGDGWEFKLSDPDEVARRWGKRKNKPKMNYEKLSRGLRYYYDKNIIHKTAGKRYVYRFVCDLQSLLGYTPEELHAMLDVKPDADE
Test: ETS1 binding intensity (PBM fluorescence), ETS1 alone (arbitrary fluorescence units); higher = stronger binding
Details: ETS1 concentration 1 nM; RUNX1 concentration 0 nM
For each of the sequences below, state its ETS1 binding intensity.
One number for each entry.

Worked cases, ETS1 binding intensity given:
TCTGGAGAAGCAGGATGTGGTTTGCAAGAGGCTTGC
4750
GCAGCCAGGGTAGGAAGTGGTAAGACCTCCCTGTGA
893
CTAGGCCACCGGAAGTCTCCGCAGTGGTTTTGCAAA
14900

State recorded ETS1 binding intensity for all listed sequences.
1. TTCATCTCTCACTTCCTGTGGTGACGGCTGACGGGG
2. CTCACAGCAGCCCCAGGAAACCACCTCTTCCTTCAG
3. GGTACCAAGGGCAGAGGATGTGGTGAGGTGTGGAGG
4. ACTCCCTAGAGCAGGAAGCCTGTGGTTTGTAATTGG
5. GAGTGACTGCTAACGGATGTGTGGTTTCTTTAGTTT

OUT:
[4120, 847, 940, 1140, 2000]

IN: Please tell me: ETS1 binding intensity of `AGTTGGTTCCTTCCGGTGGGTTTGTGGGCTTGGGGT` , system ETS1 (UniProt P14921)?
OUT: 1400

Values from the supplement of paper PMC10681739
